- Assay: probe aNOTCH2 binding on compound microarray – biochemical, small-molecule microarray, 635/667 nm fluorescence, primary screen (AID 1121);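 note: score merges feature fluorescence read at 667 nm with its signal to noise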
- Condition Details: higher = more signal
Quantity: composite z-score
No unit in the answer, please; the number alone is enough.

Example results:
Compound	Test Result
CC#CC(=O)Oc1ccc(Br)cc1C=CC(=O)OCC	-0.0529
O=C(CS)NCCCCCNC(=O)[C@H]1C[C@H]2C(=O)NCC(=O)N2[C@H]1c1cccc(OCCO)c1	-0.164
[N-]=[N+]=NCc1ccccc1[C@H]1OC(c2ccc(OCCCO)cc2)=N[C@@]1(Cc1ccccc1)C(=O)N1CCCCC1	-0.133
CN1CCC(CCCO)=CC1c1cccs1 (stereo not drawn)	-0.148
COc1ccc([Si](C)(C)[C@@H]2[C@@H](CC(=O)N3CCC[C@H]3CO)O[C@]3(C(=O)N(Cc4cccc(I)c4)c4ccccc43)[C@H]2C)cc1	-0.0956

## Task Report composite z-score for CC(C)CCC[C@@H](C)[C@H]1CC[C@@]2(C)C3=C(CC[C@]12C)[C@@]1(C)CC[C@H](OC(=O)c2ccc(C(F)(F)F)nc2)C(C)(C)C1CC3 (stereo partly drawn) please.
## Result -0.17

## Task Item under review: [N-]=[N+]=Nc1ccccc1C[C@]1(C(=O)NCc2ccccc2)N=C(c2ccc(OCCCO)cc2)O[C@H]1c1ccccc1N=[N+]=[N-] . Reported composite z-score?
## Result -0.0211

## Task Query (compound): COC(=O)[C@H](Cc1ccccc1)N[C@H](/C=C/C1CC1)[C@@H](O)Cc1ccccc1 ; field requested: composite z-score
## Result -0.193

----------
- Test system: Sam68 (KHDRBS1)
- Assay: compounds binding KHDRBS1 protein – biochemical, small-molecule microarray, 635 nm fluorescence, primary screen (AID 1125);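 note: score merges 667 nm channel intensity with signal to noise over triplicate slides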
- Condition Details: higher = more signal
The entries below are paired with their reported composite z-score.
// no unit, no text: just the number

                            chemical_smiles  test_result
0  CC(C)(C)OC(=O)CC[C@@]1(C(=O)N2CCCCC2)N=C(c2ccc(OCCCO)cc2)O[C@@H]1c1ccccc1         1.29
1  C=C(CCCC)/C(=C/C[C@H](OC(C)=O)c1ccccc1OCCO)c1cnc2ccccc2c1          0.8

## Task GET /values?readout=composite z-score&item= NC(=O)[C@@H]1[C@H]2C(=O)O[C@H](c3ccccc3)[C@H](c3ccccc3)N2[C@H](c2ccc(O)cc2)[C@@]12C(=O)Nc1ccc(C#CC3=CCCCC3)cc12
## Result 0.449

## Task What value of composite z-score has been recorded for this entry: COC(=O)[C@@]1(CCC(=O)OC(C)(C)C)N=C(c2ccc(OCCCO)cc2)O[C@H]1c1ccccc1
## Result -0.297

----------
- Experimental Target: Luciferin 4-monooxygenase (Photinus pyralis)
- Assay: inhibition of purified Photinus pyralis luciferase – biochemical, luminescence, purified enzyme, 2006 set, primary screen (AID 1141);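 note: cell-free assay with purified firefly luciferase at 100 ng per well in PBS; test concentration not given here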
- Condition Details: purified firefly luciferase, SteadyGlo luminescence, 30 min; higher = more signal, called active from +8 up or from −8 down
Would you please tag the item Satisfied when its z-score is -0.4 or above, and Not satisfied when it is below?

## Task Is z-score at least -0.4? Consider CCOc1cc(C(O)C2C=CC3C(=O)N(c4ccccc4)C(=O)C3N2Nc2ccc(C(C)C)cc2)ccc1O (stereo unspecified)
## Result Satisfied

----------
- Assay: blockers of DNA damage checkpoint Chk1 activation – imaging, HeLa, hydroxyurea, phospho-Chk1 nuclear intensity, primary screen (AID 1187); note: test concentration not given here
- Condition Details: hydroxyurea-induced phospho-Chk1 immunofluorescence imaging, higher = more signal
Active and inactive are the calls of the source. How the calls were made is not given here.
Quantity: z-score

Guide cases for z-score, answers given:
Molecule	Quantity	Test Result
COC(=O)[C@@]1(Cc2ccc(F)cc2)[C@H]2c3cc(C(=O)N(C)C)n(Cc4ccc(C)o4)c3C[C@H]2CN1C(=O)c1ccccc1	z-score	-0.0286 (inactive)
COCCOC(=O)N1C(=O)[C@@]2(c3ccccc31)[C@H](C(=O)N1CCc3cc(OC)c(OC)cc3C1)[C@H]1C(=O)O[C@H](c3ccccc3)[C@H](c3ccccc3)N1[C@@H]2c1ccc(O)cc1	z-score	-0.469 (inactive)
C[C@H]1C2[C@H](Cc3ccccc3)NC(=O)[C@]23C(=O)NCC(=O)N2CCC[C@H]2C(=O)NC/C=C/CCC/C=C/C3[C@@H]2O[C@]12C (some centres undefined)	z-score	0.0823 (inactive)

Next molecule, z-score to be filled in.
## Task Which z-score is reported for this molecule? CCCCCCCCCCC(O)C1C=CC2C(=O)NC(=O)C2N1Nc1ccc(Cl)cc1Cl (centres undefined)
## Result 0.006 (inactive)

----------
- Experimental Target: Homeobox protein Hox-A13 (Mus musculus)
- Assay: disruptors of Hoxa13 oligonucleotide interaction – biochemical, fluorescence polarization, labeled oligonucleotide, primary screen (AID 1185)
- Condition Details: Hoxa13:DNA binding, 15 min, higher = more signal, called active from +8 up or from −8 down
Reported z-score values for a set of compounds
Number, no unit, nothing else.

Check out these entries, answers already filled in.
Compound	Experimental Target	z-score
COC(=O)c1c(CC[C@@H](CO)NC(=O)NCCc2c[nH]c3ccccc23)oc(C(=O)Cc2ccccc2)c1C(=O)OC	Homeobox protein Hox-A13 (Mus musculus)	-6.54
C=C(/C(=C/C[C@H](OC(=O)c1ccncc1)c1ccc(OCCO)cc1)c1cc(C(=O)OC)ccc1OC)C(C)C	Homeobox protein Hox-A13 (Mus musculus)	-3.23

## Task For the compound shown here, CCCC1(C(=O)OC)C=C2C(=C(c3ccccc3)C(=O)C2C)CN1 (stereo not given) , give the reported z-score.
## Result -8.64

## Task What value of z-score has been recorded for this entry: COc1ccccc1CN1C(=O)c2ccccc2[C@@]2(Cc3ccccc3N(CCCN(C)C)C2=O)[C@@H]1c1ccc(CO)cc1
## Result 1.78

## Task Consider the compound shown here: C#CCN1[C@H](/C=C/C2CC2)[C@H](Cc2ccccc2)OC(=O)[C@@H]1Cc1ccccc1 What is its recorded z-score?
## Result -0.837

## Task Which z-score reading was recorded for the compound O=C1OCC=C[C@H]2OC34C=CCN(Cn5nnc6ccccc65)C(=O)[C@H]3N(CCCCCO)C(=O)[C@@H]4[C@@H]12 (stereo not given in full) ?
## Result -3.27

## Task # input compound: CO[C@H]1O[C@H](CO)[C@@H](OC(=O)Nc2ccc(Br)cc2)[C@@H]2OC(=O)[C@H](Cc3cccc(Br)c3)C/C=C/C[C@@H](Cc3cccc(Br)c3)C(=O)O[C@@H]12 ; wanted: its z-score
## Result 1.51

## Task Given CCOC(=O)C1=CC[C@@H](c2ccccc2)N(S(=O)(=O)c2ccc(C)cc2)[C@H]1c1ccc(CC)cc1 , state its recorded z-score.
## Result 0.868

## Task I am curious: what z-score value has been reported for COCCOC(=O)N1C(=O)[C@@]2(c3ccccc31)[C@H](C(=O)N1CCc3cc(OC)c(OC)cc3C1)[C@H]1C(=O)O[C@H](c3ccccc3)[C@H](c3ccccc3)N1[C@@H]2c1ccc(O)cc1 ?
## Result -1.34

## Task For Cc1ccc(S(=O)(=O)N2C[C@@H](C(=O)O)[C@H](Sc3ccccc3)C[C@H]2c2ccccc2)cc1 , what is its reported z-score?
## Result -7

## Task Query (compound): O=C(CS)NCCCCCNC(=O)[C@H]1C[C@H]2C(=O)NCC(=O)N2[C@H]1c1cccc(OCCO)c1 ; field requested: z-score
## Result -1.67

## Task # query: z-score of entry CCCC(=O)N(CCc1c[nH]c2ccccc12)[C@@H]1CC(C(=O)NCCO)=C[C@H](Oc2c(I)cc(CO)cc2OC)[C@H]1O
## Result -7.89

## Task Bench note: what z-score did O=C1OCCC=C[C@H]2OC34C=CCN(c5ccc(Cl)cc5)C(=O)[C@H]3N(CCCO)C(=O)[C@@H]4C12 (stereo not given in full) show?
## Result -3.2

## Task Find the recorded z-score belonging to [N-]=[N+]=NCc1ccccc1[C@@H]1OC(c2ccc(OCCCO)cc2)=N[C@]1(CCS(=O)(=O)c1ccccc1)C(=O)N1CCOCC1 and report it.
## Result -1.69

## Task Would you kindly share the measured z-score for CC(C)NC(=O)[C@@H]1c2ccccc2C(=O)N(C(C)C)[C@H]1c1ccc(CO)cc1 ?
## Result -2.52

----------
Each entry below lists one item and its recorded z-score value.
- Experimental Target: Homeobox protein Hox-A13 (Mus musculus)
- Assay: disruptors of Hoxa13 oligonucleotide interaction – biochemical, fluorescence polarization, labeled oligonucleotide, primary screen (AID 1185)
- Condition Details: Hoxa13:DNA binding, 15 min, higher = more signal, called active from +8 up or from −8 down
Form field (numeric): enter value without unit.

Example entries and their recorded answers appear below.
Compound	Quantity	Test Result
C=CCC(OC(C)=O)[C@@H]1[C@@H](N(Cc2ccc(-c3cccc(C(F)(F)F)c3)o2)C(=O)Cc2ccc(OC)cc2)c2cc(OCCCO)ccc2N1C(=O)c1ccc2ccccc2c1 (stereo partly drawn)	z-score	-2.43
COCCOC(=O)N1C(=O)[C@@]2(c3cc(C#CC4(O)CCCCCC4)ccc31)[C@H](c1ccccc1OCCO)N1[C@H](c3ccccc3)[C@H](c3ccccc3)OC(=O)[C@H]1[C@@H]2C(=O)N1CCc2cc(OC)c(OC)cc2C1	z-score	-0.494

As a next step, examine the compound that follows.
## Task Notebook entry, Homeobox protein Hox-A13 (Mus musculus) assay: z-score of NC(=O)N1C(=O)C2C(C1=O)C1C=C(CCCO)C2C(C2CC2)N1Cc1cc2c(cc1Br)OCO2 (stereo not drawn) = ?
## Result -7.26

Data provenance is PubChem BioAssay.
